These data points were gathered from PubChem BioAssay AID1209.

biological target: Mannose-6-phosphate isomerase (Homo sapiens) (UniProt P34949); assay: inhibitors of human PMI, primary screen, biochemical, fluorescence intensity, coupled assay (AID 1209); conditions: purified PMI enzyme, at 20 µM, hits give high values;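 also: plate controls were DMSO vehicle for no effect and wells lacking substrate for full effect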
Sequence (P34949 whole entry, looked up): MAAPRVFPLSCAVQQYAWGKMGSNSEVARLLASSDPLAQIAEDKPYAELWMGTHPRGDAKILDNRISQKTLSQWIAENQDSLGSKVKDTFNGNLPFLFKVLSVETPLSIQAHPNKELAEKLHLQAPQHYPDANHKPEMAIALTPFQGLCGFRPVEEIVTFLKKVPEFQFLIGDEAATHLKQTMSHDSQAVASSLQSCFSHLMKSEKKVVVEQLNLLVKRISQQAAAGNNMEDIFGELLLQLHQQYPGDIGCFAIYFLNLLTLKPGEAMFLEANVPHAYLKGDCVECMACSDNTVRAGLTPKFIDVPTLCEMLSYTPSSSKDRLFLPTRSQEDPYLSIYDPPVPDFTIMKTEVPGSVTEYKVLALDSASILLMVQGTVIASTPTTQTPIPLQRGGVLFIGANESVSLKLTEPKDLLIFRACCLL
Hit rate of the full screen: of about 190,000 compounds, about 810 (0.43%) were called active. Many of the other results were omitted from the sample, so actives are more common in it than they were.
Reported inhibition values for a set of molecules
Provide only the numeric value, understood in %.

Answered examples (3):
>  <Molecule>
CC(=O)CC(C)=NCCN=C(C)CC(C)=O

>  <System Tested>
Mannose-6-phosphate isomerase (Homo sapiens) (UniProt P34949)

>  <inhibition [%]>
-3.7

$$$$
>  <Molecule>
CN(c1ccccc1)S(=O)(=O)c1cccc(C(=O)NCCc2ccc(O)c(O)c2)c1

>  <System Tested>
Mannose-6-phosphate isomerase (Homo sapiens) (UniProt P34949)

>  <inhibition [%]>
54.9

$$$$
>  <Molecule>
COc1cccc(NC(=S)Nc2cccnc2)c1

>  <System Tested>
Mannose-6-phosphate isomerase (Homo sapiens) (UniProt P34949)

>  <inhibition [%]>
10.6

$$$$

GET /value?item= CCn1c(SCC(=O)NC2CCS(=O)(=O)C2)nnc1-c1ccccc1 (stereo not drawn) &field=inhibition returns -4.5

Consider `COc1cc(C(=S)NCc2ccccc2)cc(Br)c1O` . Its measured inhibition is 68.6

Notebook: `CN(C)c1ccc(/C=N/NC(=S)NCc2ccco2)cc1` , inhibition read as -8

Entry under test: `CCOC(=O)C1CCN(Cc2ccc(O)c3ncccc23)CC1` . Its inhibition was 67

The molecule listed as `COc1cc(NC(=S)Nc2cccnc2)cc(OC)c1` has a reported inhibition of 55.4

// field: inhibition; key: `CCOC(=O)c1sc(/N=C/c2ccc(O)cc2O)cc1C` ; value = 28.9

Short answer for `CCOC(=O)C1CCN(Cc2ccc(OC)c(C)c2OC)CC1` : inhibition was -4.3

Record summary for `CCOc1ccc(NC(=S)Nc2ccc(OCC)cc2)cc1` : reported inhibition = 7.6

Per the record, `COc1ccc(Cn2c(C)c(C)c(C#N)c2NC(=O)Nc2cccc(C)c2)cc1` has inhibition of -1.9

The measured inhibition associated with `Oc1c(CN2CCc3ccccc3C2)cc(Cl)c2cccnc12` reads 40

Given item `O=C(NC(=S)Nc1cccc2cnccc12)c1ccccc1` , the value recorded as its inhibition is 22.7

The reported value for `COc1ccc(Br)cc1-c1noc(-c2ccccc2)n1` in terms of inhibition is 11.5

Record `CN(c1ccccc1)S(=O)(=O)c1cccc(C(=O)NNC(=O)c2ccccc2)c1` , field inhibition: 7.8

// field: inhibition; key: `Fc1ccc(NC(=S)Nc2cccc3cnccc23)cc1` ; value = 10.9

Query `C=CCOc1ccc(CNc2ccc3[nH]c(=O)[nH]c3c2)cc1OC` yields inhibition of 81.1

Input `CC(C)(C)NC(=O)COc1ccc(CNc2ncn[nH]2)cc1` . Output inhibition: 6.1

Record `c1cc2ccc3ccc(CN4CCOCC4)c4ccc(c1)c2c34` , field inhibition: -2.6
